Hey, just so you know, these numbers are from paper PMC2646141.

B1: wild type APOBEC3G prey [human] / wild type APOBEC3G bait [human] (parent)
chain 1: MKPHFRNTVERMYRDTFSYNFYNRPILSRRNTVWLCYEVKTKGPSRPPLDAKIFRGQVYSELKYHPEMRFFHWFSKWRKLHRDQEYEVTWYISWSPCTKCTRDMATFLAEDPKVTLTIFVARLYYFWDPDYQEALRSLCQKRDGPRATMKIMNYDEFQHCWSKFVYSQRELFEPWNNLPKYYILLHIMLGEILRHSMDPPTFTFNFNNEPWVRGRHETYLCYEVERMHNDTWVLLNQRRGFLCNQAPHKHGFLEGRHAELCFLDVIPFWKLDLDQDYRVTCFTSWSPCFSCAQEMAKFISKNKHVSLCIFTARIYDDQGRCQEGLRTLAEAGAKISIMTYSEFKHCWDTFVDHQGCPFQPWDGLDEHSQDLSGRLRAILQNQEN
chain 2: B1 chain 1

- Variants of: B1
- assay procedure: yeast two-hybrid (β-galactosidase activity)
- assay context: with wild type APOBEC3G (A3G) bait [human]; parent: 0.5; read off a plot
measurement label: response (OD540)

P. chain 1 Y124A
Q. chain 1 W127A
R. chain 1 Y315A
S. chain 1 Y315F
Sort the items above on response, descending. To answer, arrange all of the labels according to the requested order.
R, S, P, Q
(R: 0.59 OD540, S: 0.34 OD540, P: 0.062 OD540, Q: 0.038 OD540)
